Data credit: ChEMBL document CHEMBL1128485

# system.tested: Steroid 5-alpha-reductase (Rattus norvegicus) (UniProt P24008+P31214)
# Sequence (P24008 whole entry, looked up): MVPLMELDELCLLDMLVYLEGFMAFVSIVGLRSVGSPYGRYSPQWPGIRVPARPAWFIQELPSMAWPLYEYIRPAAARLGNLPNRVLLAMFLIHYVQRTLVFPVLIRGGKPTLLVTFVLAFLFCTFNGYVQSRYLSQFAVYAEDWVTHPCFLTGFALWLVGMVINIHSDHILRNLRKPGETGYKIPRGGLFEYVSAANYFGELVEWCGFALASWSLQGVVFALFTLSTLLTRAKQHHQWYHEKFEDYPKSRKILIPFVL
# Sequence (P31214 whole entry, looked up): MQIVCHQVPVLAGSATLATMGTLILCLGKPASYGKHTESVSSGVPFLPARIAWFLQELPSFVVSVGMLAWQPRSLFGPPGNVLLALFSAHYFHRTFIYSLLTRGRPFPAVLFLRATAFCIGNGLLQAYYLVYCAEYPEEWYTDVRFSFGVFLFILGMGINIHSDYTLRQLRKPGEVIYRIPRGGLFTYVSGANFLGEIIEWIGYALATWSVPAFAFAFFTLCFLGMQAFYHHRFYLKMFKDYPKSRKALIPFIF
# assay.summary: Inhibitory activity against Steroid 5-alpha-reductase in prostates from male rats
# Format: tissue-based
# Design: concentration or dose not given beside the values
# run.conditions: Prostate gland; concentration not given here
inhibition by entry:
Kindly provide the numeric value in % only, without the unit symbol.

Here are 8 compounds together with their reported answers.
[[record]]
compound = "C/C(=C\\C(=O)Nc1ccccc1OCCCC(=O)O)c1ccc2c(ccn2C2c3ccccc3CCc3ccccc32)c1"
system_tested = "Steroid 5-alpha-reductase (Rattus norvegicus) (UniProt P24008+P31214)"
readout_name = "inhibition"
units_of_measure = "%"
measured_value = 31

[[record]]
compound = "C/C(=C\\C(=O)Nc1ccccc1OCCCC(=O)O)c1ccc2c(ccn2C2CCCCC2)c1"
system_tested = "Steroid 5-alpha-reductase (Rattus norvegicus) (UniProt P24008+P31214)"
readout_name = "inhibition"
units_of_measure = "%"
measured_value = 48

[[record]]
compound = "C/C(=C\\C(=O)Nc1ccccc1OCCCC(=O)O)c1ccc2c(ccn2C(C)c2ccc3ccccc3c2)c1 (centres undefined)"
system_tested = "Steroid 5-alpha-reductase (Rattus norvegicus) (UniProt P24008+P31214)"
readout_name = "inhibition"
units_of_measure = "%"
measured_value = 26

[[record]]
compound = "C/C(=C\\C(=O)Nc1cc(F)ccc1OCCCC(=O)O)c1ccc2c(ccn2C(c2ccccc2)c2ccccc2)c1"
system_tested = "Steroid 5-alpha-reductase (Rattus norvegicus) (UniProt P24008+P31214)"
readout_name = "inhibition"
units_of_measure = "%"
measured_value = 52

[[record]]
compound = "C/C(=C\\C(=O)Nc1cc(Cl)ccc1OCCCC(=O)O)c1ccc2c(ccn2C(c2ccccc2)c2ccccc2)c1"
system_tested = "Steroid 5-alpha-reductase (Rattus norvegicus) (UniProt P24008+P31214)"
readout_name = "inhibition"
units_of_measure = "%"
measured_value = 38

[[record]]
compound = "CCCC(CCC)n1ccc2cc(/C(C)=C/C(=O)Nc3ccc(OCCCC(=O)O)cc3)ccc21"
system_tested = "Steroid 5-alpha-reductase (Rattus norvegicus) (UniProt P24008+P31214)"
readout_name = "inhibition"
units_of_measure = "%"
measured_value = 28

[[record]]
compound = "CCCC(CCC)n1ccc2cc(/C(C)=C/C(=O)Nc3cccc(OCCCC(=O)O)c3)ccc21"
system_tested = "Steroid 5-alpha-reductase (Rattus norvegicus) (UniProt P24008+P31214)"
readout_name = "inhibition"
units_of_measure = "%"
measured_value = 19

[[record]]
compound = "C/C(=C\\C(=O)Nc1cc(C)ccc1OCCCC(=O)O)c1ccc2c(ccn2C(c2ccccc2)c2ccccc2)c1"
system_tested = "Steroid 5-alpha-reductase (Rattus norvegicus) (UniProt P24008+P31214)"
readout_name = "inhibition"
units_of_measure = "%"
measured_value = 45


Now for a further compound.
// query inhibition value for entry C/C(=C\C(=O)N(C)c1ccccc1OCCCC(=O)O)c1ccc2c(ccn2C(C)c2ccccc2)c1 (centres undefined)
8
